# Assay System: NAMPT (human, recombinant, C-terminally His-tagged) (Homo sapiens)
# Sequence (P43490 whole entry): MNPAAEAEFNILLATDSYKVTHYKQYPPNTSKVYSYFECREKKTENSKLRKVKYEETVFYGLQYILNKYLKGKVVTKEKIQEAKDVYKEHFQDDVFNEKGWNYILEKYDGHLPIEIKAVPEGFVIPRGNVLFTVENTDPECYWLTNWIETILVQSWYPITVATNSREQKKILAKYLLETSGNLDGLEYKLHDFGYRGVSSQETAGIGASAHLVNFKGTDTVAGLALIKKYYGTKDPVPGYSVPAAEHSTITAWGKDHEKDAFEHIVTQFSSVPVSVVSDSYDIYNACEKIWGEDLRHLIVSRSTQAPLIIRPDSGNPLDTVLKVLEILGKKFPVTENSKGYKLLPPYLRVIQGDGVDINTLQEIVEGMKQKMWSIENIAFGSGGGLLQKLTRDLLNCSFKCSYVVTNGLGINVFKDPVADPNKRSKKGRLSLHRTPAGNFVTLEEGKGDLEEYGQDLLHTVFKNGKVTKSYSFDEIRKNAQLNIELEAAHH
# Assay Protocol: Time-Resolved Fluorescence Resonance Energy Transfer (TR-FRET) Binding Assay of NAMPT
# Assay Conditions: without substrates; 6.8 nM NAMPT, 200 nM probe, 3 hours equilibration
pIC50: −log10 of the molar value.
Measured Parameter: pIC50

{"columns": ["Compound", "Assay System", "pIC50"],
 "data": [
  ["O=C(NCc1ccc2nccn2c1)c1ccc(C2=CCN(C(=O)CC3CCCO3)CC2)cc1 (stereo not shown) [Example 95]", "NAMPT (human, recombinant, C-terminally His-tagged) (Homo sapiens)", 6.70],
  ["Cc1ccsc1C(=O)N1CC(c2ccc(C(=O)NCc3ccn4ccnc4c3)cc2)C1 [Example 670]", "NAMPT (human, recombinant, C-terminally His-tagged) (Homo sapiens)", 7.21],
  ["CC(C)CCC(=O)Nc1ccc(C(=O)NCc2ccn3ccnc3c2)cc1 [Example 213]", "NAMPT (human, recombinant, C-terminally His-tagged) (Homo sapiens)", 6.94],
  ["COC1(Cn2ncc(-c3ccc(C(=O)NCc4ccn5ccnc5c4)s3)c2C)CCCC(C)(C)C1 (stereo not shown) [Example 273]", "NAMPT (human, recombinant, C-terminally His-tagged) (Homo sapiens)", 7.31]
]}

[1] CC(C)(C#N)Cn1cc(-c2ccc(C(=O)NCc3ccn4ccnc4c3)s2)cn1 [Example 577]
[2] O=C(NCc1ccn2ccnc2c1)c1ccc(C2CN(C(=O)c3cccc(Cl)c3)C2)cc1 [Example 646]
[3] O=C(NCc1ccn2ccnc2c1)c1ccc(C2CCN(S(=O)(=O)C3CC3)C2)cc1 (stereo not shown) [Example 626]
[4] O=C(NCc1ccc2nccn2c1)c1ccc(OC2CCN(C(=O)CC3CCOCC3)CC2)cc1 [Example 171]
[5] CC(C)[C@@H]1COC(=O)N1c1ncc(C(=O)NCc2ccn3ccnc3c2)s1 [Example 181]
Ask: hey, can you rank those compounds up there by pIC50? biggest number first please Order the labels as requested and list them.
Reply: 1, 2, 5, 3, 4

[I] Cc1ncc(CC(=O)N(CC2CCCO2)c2ncc(C(=O)NCc3ccc4nccn4c3)s2)s1 (stereo not shown) [Example 123]
[II] O=C(NCc1ccc2nccn2c1)c1ccc(OC2CCN(C(=O)C3CCOCC3)CC2)cc1 [Example 162]
Ask: Which of these two has the smaller recorded pIC50: I or II ? Which one? Tell me its label.
Reply: II

[I] O=C(NCc1ccn2ccnc2c1)c1ccc(C2CCN(C(=O)c3cccs3)C2)s1 (stereo not shown) [Example 786]
[II] CC(C)C(=O)N1CCC(c2ccc(C(=O)NCc3ccn4ccnc4c3)cc2)C1 (stereo not shown) [Example 367]
Ask: When I and II are compared, which has the higher number for pIC50? Which one? Tell me its label.
Reply: I
(I: 7.35, II: 6.19)

[1] O=C(NCc1ccn2ccnc2c1)c1ccc(-c2cnn(CC3CCCO3)c2)s1 (stereo not shown) [Example 248]
[2] O=C(NCc1ccn2ccnc2c1)Nc1ccc(O[C@@H]2CCN(C(=O)c3ccccc3Cl)C2)cc1 [Example 695]
Ask: When 1 and 2 are compared, which has the higher number for pIC50? Which one? Tell me its label.
Reply: 2

* * *

# Assay System: NAMPT (human, recombinant, C-terminally His-tagged) (Homo sapiens)
# Assay Protocol: Time-Resolved Fluorescence Resonance Energy Transfer (TR-FRET) Binding Assay of NAMPT
# Assay Conditions: without substrates; 6.8 nM NAMPT, 200 nM probe, 3 hours equilibration
# Procedure: Determination of the utility of compounds having Formula (I) as binders to and inhibitors of NAMPT was performed using Time-Resolved Fluorescence Resonance Energy Transfer (TR-FRET) binding assays. Time-Resolved Fluorescence Resonance Energy Transfer (TR-FRET) Binding Assay of NAMPT […]
pIC50: −log10 of the molar value.
Measured Parameter: pIC50

Below: 6 molecules and their reported pIC50.
{"columns": ["Molecule", "Assay System", "Obs Value"],
 "data": [
  ["O=C(Nc1ccc(C2CCN(C(=O)C3CCOCC3)CC2)cc1)Nc1ccc2nccn2c1", "NAMPT (human, recombinant, C-terminally His-tagged) (Homo sapiens)", 6.47],
  ["O=C(NCCCCC1CCN(C(=O)C2COCCO2)CC1)Nc1ccc2nccn2c1 (centres unmarked)", "NAMPT (human, recombinant, C-terminally His-tagged) (Homo sapiens)", 6.20],
  ["O=C(CCC1CCCC1)Nc1ccc(NC(=O)NCc2ccc3nccn3c2)cc1", "NAMPT (human, recombinant, C-terminally His-tagged) (Homo sapiens)", 7.91],
  ["CC(C)C(=O)NC1(c2ccc(C(=O)NCc3ccn4ccnc4c3)s2)COC1", "NAMPT (human, recombinant, C-terminally His-tagged) (Homo sapiens)", 6.01],
  ["O=C(NCc1ccn2ccnc2c1)c1ccc(C2CCN(C(=O)CC3CCCO3)CC2)cc1 (centres unmarked)", "NAMPT (human, recombinant, C-terminally His-tagged) (Homo sapiens)", 6.31],
  ["O=C(NCc1ccc2nccn2c1)c1ccc(OC2CCN(C(=O)CC(F)(F)F)CC2)cc1", "NAMPT (human, recombinant, C-terminally His-tagged) (Homo sapiens)", 5.47]
]}

[I] O=C(NCc1ccn2ccnc2c1)c1ccc(C2CN(C(=O)c3ccc(F)cc3F)C2)cc1
[II] Cc1cc(CC(=O)N(CC2CCCO2)c2ncc(C(=O)NCc3ccc4nccn4c3)s2)nn1C (centres unmarked)
Ask: Which of these two has the smaller recorded pIC50: I or II ? Which one? Tell me its label.
Reply: II
